# TARGET OR SYSTEM: UniProt:P02768
# Sequence (P02768 whole entry): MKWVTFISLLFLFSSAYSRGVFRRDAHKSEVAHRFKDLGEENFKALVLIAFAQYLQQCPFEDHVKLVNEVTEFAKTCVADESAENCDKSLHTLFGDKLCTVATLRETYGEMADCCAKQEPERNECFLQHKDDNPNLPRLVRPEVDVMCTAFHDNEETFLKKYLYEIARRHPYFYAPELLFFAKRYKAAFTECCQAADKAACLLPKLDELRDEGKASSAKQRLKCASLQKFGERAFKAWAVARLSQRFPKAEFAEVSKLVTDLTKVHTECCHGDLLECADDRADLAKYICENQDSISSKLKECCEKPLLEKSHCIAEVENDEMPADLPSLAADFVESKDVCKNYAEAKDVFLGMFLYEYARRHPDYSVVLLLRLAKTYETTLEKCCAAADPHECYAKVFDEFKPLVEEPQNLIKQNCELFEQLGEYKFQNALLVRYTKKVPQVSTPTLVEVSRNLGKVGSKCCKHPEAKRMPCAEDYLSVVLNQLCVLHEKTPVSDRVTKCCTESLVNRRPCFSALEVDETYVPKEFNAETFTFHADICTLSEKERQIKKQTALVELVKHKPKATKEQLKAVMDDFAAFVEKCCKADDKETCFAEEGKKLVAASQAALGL
# TEST NAME: Binding constant against human serum albumin (HSA)
Using Log K' as the sorting value, the categories are low value (below 0.3), medium value (0.3 to below 0.7), high value (0.7 or more)

[
  {
    "COMPOUND": "CNS(=O)(=O)Cc1ccc2[nH]cc(CCN(C)C)c2c1",
    "TARGET OR SYSTEM": "UniProt:P02768",
    "GROUP LABEL": "low value"
  },
  {
    "COMPOUND": "C[C@]12CC[C@H]3[C@@H](CCC4=CC(=O)CC[C@@]43C)[C@@H]1CC[C@@H]2O",
    "TARGET OR SYSTEM": "UniProt:P02768",
    "GROUP LABEL": "high value"
  },
  {
    "COMPOUND": "CC(=O)Nc1ccc(O)cc1",
    "TARGET OR SYSTEM": "UniProt:P02768",
    "GROUP LABEL": "high value"
  },
  {
    "COMPOUND": "C[C@]12CCC(=O)C=C1CC[C@@H]1[C@@H]2[C@@H](O)C[C@@]2(C)[C@H]1CC[C@]2(O)C(=O)CO [HYDROCORTISONE]",
    "TARGET OR SYSTEM": "UniProt:P02768",
    "GROUP LABEL": "medium value"
  },
  {
    "COMPOUND": "CC(=O)O[C@H]1C[C@@]2(C)[C@@H](C[C@@H](O)[C@H]3[C@@]4(C)CC[C@@H](O)[C@@H](C)[C@@H]4CC[C@@]32C)/C1=C(\\CCC=C(C)C)C(=O)O",
    "TARGET OR SYSTEM": "UniProt:P02768",
    "GROUP LABEL": "medium value"
  },
  {
    "COMPOUND": "O=C(CCCN1CC=C(n2c(=O)[nH]c3ccccc32)CC1)c1ccc(F)cc1",
    "TARGET OR SYSTEM": "UniProt:P02768",
    "GROUP LABEL": "medium value"
  },
  {
    "COMPOUND": "CCOC(=O)C(C)(C)Oc1ccc(Cl)cc1 [CLOFIBRATE]",
    "TARGET OR SYSTEM": "UniProt:P02768",
    "GROUP LABEL": "low value"
  },
  {
    "COMPOUND": "CC(C)NCC(O)COc1cccc2[nH]ccc12 (stereo unspecified)",
    "TARGET OR SYSTEM": "UniProt:P02768",
    "GROUP LABEL": "low value"
  },
  {
    "COMPOUND": "CCCCNc1ccc(C(=O)OCCN(C)C)cc1",
    "TARGET OR SYSTEM": "UniProt:P02768",
    "GROUP LABEL": "medium value"
  },
  {
    "COMPOUND": "CC(CCc1ccccc1)NCC(O)c1ccc(O)c(C(N)=O)c1 (stereo unspecified)",
    "TARGET OR SYSTEM": "UniProt:P02768",
    "GROUP LABEL": "low value"
  },
  {
    "COMPOUND": "CC(C)NCC(O)COc1cccc2ccccc12 (stereo unspecified)",
    "TARGET OR SYSTEM": "UniProt:P02768",
    "GROUP LABEL": "low value"
  },
  {
    "COMPOUND": "C=CCc1ccccc1OCC(O)CNC(C)C (stereo unspecified)",
    "TARGET OR SYSTEM": "UniProt:P02768",
    "GROUP LABEL": "low value"
  },
  {
    "COMPOUND": "CNCCCN1c2ccccc2CCc2ccccc21",
    "TARGET OR SYSTEM": "UniProt:P02768",
    "GROUP LABEL": "medium value"
  },
  {
    "COMPOUND": "CO/N=C(\\C(=O)N[C@@H]1C(=O)N2C(C(=O)O)=C(COC(N)=O)CS[C@H]12)c1ccco1",
    "TARGET OR SYSTEM": "UniProt:P02768",
    "GROUP LABEL": "high value"
  },
  {
    "COMPOUND": "CCN(CC)CCOC(=O)c1ccc(N)cc1",
    "TARGET OR SYSTEM": "UniProt:P02768",
    "GROUP LABEL": "low value"
  },
  {
    "COMPOUND": "O=C(N[C@H](CO)[C@H](O)c1ccc([N+](=O)[O-])cc1)C(Cl)Cl",
    "TARGET OR SYSTEM": "UniProt:P02768",
    "GROUP LABEL": "medium value"
  },
  {
    "COMPOUND": "Clc1cccc(Cl)c1N=C1NCCN1",
    "TARGET OR SYSTEM": "UniProt:P02768",
    "GROUP LABEL": "low value"
  },
  {
    "COMPOUND": "CC1(C)S[C@@H]2[C@H](NC(=O)[C@H](N)c3ccc(O)cc3)C(=O)N2[C@H]1C(=O)O",
    "TARGET OR SYSTEM": "UniProt:P02768",
    "GROUP LABEL": "high value"
  },
  {
    "COMPOUND": "CN(Cc1cnc2nc(N)nc(N)c2n1)c1ccc(C(=O)N[C@@H](CCC(=O)O)C(=O)O)cc1 [METHOTREXATE]",
    "TARGET OR SYSTEM": "UniProt:P02768",
    "GROUP LABEL": "high value"
  }
]
